The origin of these recorded values is patent US8603966B2.

- assay-explanation: High throughput screen: Tb3+/DPA leakage from liposomes
- setup-conditions: labeled peptide:lipid 1:300; % of Tb3+ released after 60 minutes vs Triton-X 100 solubilized control (100% leakage)
No end group written: not given here.
observable: % Leakage (%)
Numeric answer only, unit % assumed.

RLILLFRRLGQF [SEQ ID NO: 06] yielded % Leakage of 7.2

% Leakage recorded for this sequence, PRILLRLLLGQF [SEQ ID NO: 16] , is 89

# sequence RKGLLQLLLGQF [SEQ ID NO: 18] ; its % Leakage = 92

// recorded % Leakage for PKILLFKLLGQF [SEQ ID NO: 12] : 1.6

Notebook: PLILLRLLRGQF [SEQ ID NO: 03] , % Leakage read as 1.7

In plain terms, PLGYLFLLRGQF [SEQ ID NO: 05] has a documented % Leakage of 6.0

RRILLQLLLGQF [SEQ ID NO: 15] yielded % Leakage of 105

Looking up RRILLQLLRGQF [SEQ ID NO: 10] , I see its % Leakage listed as 26

Sure, the documented % Leakage for RKILLRLLRGQF [SEQ ID NO: 02] is −3.0

sequence PLRLRFLLRGQF [SEQ ID NO: 07] , % Leakage observed: −4.5

Data point: RLIRLFLLRGQF [SEQ ID NO: 08] ; % Leakage = 5.0

Value of measured % Leakage for the entry RLILRQLLRGQF [SEQ ID NO: 17] : 115

get_value(item= RKRLLQLLLGQF [SEQ ID NO: 21] , readout=% Leakage) returns 84

Documented % Leakage of PLRLLRLLRGQF [SEQ ID NO: 11] : 5.2
